Data credit: BindingDB's records for patent US10301305

# TESTED_TARGET: D-alanine--D-alanyl carrier protein ligase (Staphylococcus aureus)
# Sequence (Q2FZW6 whole entry, looked up): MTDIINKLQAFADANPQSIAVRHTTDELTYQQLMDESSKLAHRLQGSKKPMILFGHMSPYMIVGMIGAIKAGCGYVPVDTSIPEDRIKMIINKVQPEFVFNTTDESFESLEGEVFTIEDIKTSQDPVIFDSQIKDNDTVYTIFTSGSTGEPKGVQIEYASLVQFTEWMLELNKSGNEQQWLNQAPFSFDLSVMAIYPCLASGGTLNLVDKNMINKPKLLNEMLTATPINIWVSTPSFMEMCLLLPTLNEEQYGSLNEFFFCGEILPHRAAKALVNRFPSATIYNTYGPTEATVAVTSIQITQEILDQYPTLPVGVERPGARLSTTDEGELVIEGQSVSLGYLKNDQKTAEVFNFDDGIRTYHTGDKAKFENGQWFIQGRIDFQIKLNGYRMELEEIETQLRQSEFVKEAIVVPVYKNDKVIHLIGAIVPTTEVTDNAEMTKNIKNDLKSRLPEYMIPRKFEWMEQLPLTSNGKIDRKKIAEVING
Give pIC50 for every item shown.
One number for each entry, as −log10 of the molar value.

CCn1cnc2cc(-c3cc(OCCN(C)C)c(C(N)=O)c4[nH]cnc34)ccc21: 8.17

Turning to the following molecule.
Data request: Which pIC50 is reported for this molecule? COc1cc(-c2ccc3c(c2)ncn3C2CCCCC2)c2nc[nH]c2c1C(N)=O
Data returned: 7.48

###

# TESTED_TARGET: D-alanine--D-alanyl carrier protein ligase (Enterococcus faecium (strain ATCC BAA-472 / TX0016 / DO))
# Sequence (Q3XZT7 whole entry): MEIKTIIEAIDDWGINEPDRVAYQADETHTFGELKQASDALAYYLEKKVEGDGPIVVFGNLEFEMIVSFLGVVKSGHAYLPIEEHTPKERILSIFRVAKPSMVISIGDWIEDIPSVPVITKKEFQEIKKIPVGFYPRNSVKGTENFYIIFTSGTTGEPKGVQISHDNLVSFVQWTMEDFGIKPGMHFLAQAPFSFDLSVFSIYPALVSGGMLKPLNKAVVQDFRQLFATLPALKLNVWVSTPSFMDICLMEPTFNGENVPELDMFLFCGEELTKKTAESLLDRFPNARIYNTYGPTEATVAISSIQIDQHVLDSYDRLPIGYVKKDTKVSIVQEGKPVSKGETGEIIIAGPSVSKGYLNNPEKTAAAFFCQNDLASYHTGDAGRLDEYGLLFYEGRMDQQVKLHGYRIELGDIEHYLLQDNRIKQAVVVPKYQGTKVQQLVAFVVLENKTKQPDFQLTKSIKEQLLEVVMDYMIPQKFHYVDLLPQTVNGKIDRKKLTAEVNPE
# PROCEDURE_DETAILS: in vitro DltA activity assay
MEASURE_NAME: IC50 (nM)
One number for each entry, in nM.

Completed entries (count: 2):
C[C@H]1CCCC(n2cnc3cc(-c4cc(N(C)CCN(C)C)c(C(N)=O)c5[nH]cnc45)ccc32)C1 (mixture of isomers): 25
CCn1cnc2cc(-c3cc(OCCN(C)C)c(C(N)=O)c4[nH]cnc34)ccc21: 73

Turning to the following compound.
Data request: Which IC50 is reported for this compound? COc1cc(-c2ccc3c(c2)ncn3C2CCCCC2)c2nc[nH]c2c1C(N)=O
Data returned: 79
